assayProcedure: self-splicing fitness, log relative to wild type (ln ratio); higher = more splicing; Tetrahymena group I intron in knt gene, E. coli kanamycin selection, DiMSum; sequences stand for … in CUCUCU…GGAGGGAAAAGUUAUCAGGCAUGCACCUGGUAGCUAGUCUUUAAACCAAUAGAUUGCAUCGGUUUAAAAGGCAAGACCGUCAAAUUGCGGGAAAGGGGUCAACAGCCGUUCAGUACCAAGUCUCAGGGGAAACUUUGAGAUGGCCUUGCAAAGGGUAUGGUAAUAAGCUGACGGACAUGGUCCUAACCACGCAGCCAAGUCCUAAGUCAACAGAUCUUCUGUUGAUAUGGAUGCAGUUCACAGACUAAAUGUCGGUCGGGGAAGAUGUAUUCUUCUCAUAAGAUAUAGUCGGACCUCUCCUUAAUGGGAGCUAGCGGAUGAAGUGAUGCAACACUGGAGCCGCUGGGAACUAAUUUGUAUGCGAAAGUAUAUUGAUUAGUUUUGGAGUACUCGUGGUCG;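 note: selection with 25 µg/mL kanamycin versus none on LB agar overnight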
conditionsUsed: 37 °C
Dear colleague, classification is by self-splicing fitness (ln), with ranges listed here: class A: < -2; class B: ≥ -2 and < -1; class C: ≥ -1

Study these solved cases before continuing.
Qu. Hi there! Could you help me figure out the category for GAAAAGCAAUAUUACGUGCA please?
Ans. class C

Qu. Hi there! Could you help me figure out the category for UUGUAGCAAUAUUACGAUAG please?
Ans. class B

Qu. Hi there! Could you help me figure out the category for CAUAAGCAAUAUUACGGGAC please?
Ans. class A

Qu. Hi there! Could you help me figure out the category for UCAUAGCAAUAUUACGUUUU please?
Ans. class B

Qu. Hi there! Could you help me figure out the category for CCGAAGCAAUAUUACGUUCC please?
Ans. class A

***
Qu. Hi there! Could you help me figure out the category for UCGAAGCAAUAUUACGCAUG please?
Ans. class C

Qu. Hi there! Could you help me figure out the category for GAAGAGCAAUAUUACGGAAG please?
Ans. class A

Qu. Hi there! Could you help me figure out the category for AGCCAGCAAUAUUACGGUUA please?
Ans. class C

Qu. Hi there! Could you help me figure out the category for UGCAAGCAAUAUUACGUUAU please?
Ans. class B

Qu. Hi there! Could you help me figure out the category for GAAUAGCAAUAUUACGGAGA please?
Ans. class A

Qu. Hi there! Could you help me figure out the category for GGGUAGCAAUAUUACGGCAC please?
Ans. class C

Qu. Hi there! Could you help me figure out the category for AAAUAGCAAUAUUACGUGGG please?
Ans. class A

Qu. Hi there! Could you help me figure out the category for AGAUAGCAAUAUUACGUAAA please?
Ans. class B

Qu. Hi there! Could you help me figure out the category for CAACAGCAAUAUUACGUCCA please?
Ans. class B

Qu. Hi there! Could you help me figure out the category for AAGCAGCAAUAUUACGGCGU please?
Ans. class C
